- system-tested: HIV Env, isolate 1056_10_TA11_1826 (HIV)
- experiment-summary: cell-based or functional assay
Known IC80 (µg/ml) with constrains of a selection of binders
Please give a number only; it is taken to be in µg/mL.

PGDM1400 (antibody, V domains shown) VH: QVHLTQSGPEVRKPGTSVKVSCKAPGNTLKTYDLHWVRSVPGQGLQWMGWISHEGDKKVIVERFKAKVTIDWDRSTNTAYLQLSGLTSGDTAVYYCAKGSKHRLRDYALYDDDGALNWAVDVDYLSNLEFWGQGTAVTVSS VL: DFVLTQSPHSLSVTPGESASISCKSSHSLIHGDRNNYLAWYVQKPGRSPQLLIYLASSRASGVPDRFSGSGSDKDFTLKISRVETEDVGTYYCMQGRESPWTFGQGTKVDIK	13.5

# IC80 (µg/ml) with constrains lookup, item ePGDM13 (antibody, V domains shown) VH: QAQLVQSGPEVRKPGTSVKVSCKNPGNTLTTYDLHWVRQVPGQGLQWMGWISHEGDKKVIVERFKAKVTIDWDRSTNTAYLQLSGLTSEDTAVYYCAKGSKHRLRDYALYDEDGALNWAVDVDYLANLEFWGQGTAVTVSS VL: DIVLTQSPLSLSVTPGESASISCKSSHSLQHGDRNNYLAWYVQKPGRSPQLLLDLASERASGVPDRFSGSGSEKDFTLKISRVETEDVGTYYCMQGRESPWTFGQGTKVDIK
6.03

# IC80 (µg/ml) with constrains lookup, item ePGDM9 (antibody, V domains shown) VH: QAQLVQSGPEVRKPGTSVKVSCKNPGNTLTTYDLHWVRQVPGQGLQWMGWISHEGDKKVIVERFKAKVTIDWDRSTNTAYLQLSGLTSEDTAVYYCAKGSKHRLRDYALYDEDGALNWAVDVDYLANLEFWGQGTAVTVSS VL: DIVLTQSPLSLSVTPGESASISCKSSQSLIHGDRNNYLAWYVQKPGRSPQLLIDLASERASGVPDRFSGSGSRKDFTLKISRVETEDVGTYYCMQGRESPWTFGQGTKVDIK
3.61

# IC80 (µg/ml) with constrains lookup, item ePGDM5 (antibody, V domains shown) VH: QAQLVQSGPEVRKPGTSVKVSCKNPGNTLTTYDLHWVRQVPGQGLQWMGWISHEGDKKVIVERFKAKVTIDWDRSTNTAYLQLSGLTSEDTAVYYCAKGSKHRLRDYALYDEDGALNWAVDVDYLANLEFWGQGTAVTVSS VL: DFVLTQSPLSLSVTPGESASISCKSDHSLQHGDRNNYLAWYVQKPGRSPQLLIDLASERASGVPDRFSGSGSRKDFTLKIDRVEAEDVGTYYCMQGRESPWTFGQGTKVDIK
3.57
